subject of test: Endothelial lipase (EL) (Homo sapiens (Human))
experimental protocol: EL assay: endothelial lipase activity with fluorescent substrate A10070 in DMPG vesicles
Format: biochemical
Give IC50 for every item shown.

>  <molecule>
CS(=O)(=O)C(C(=O)NCCS(N)(=O)=O)c1nc2ccc(-c3ccc(CO)cc3)cc2s1 (stereo not drawn)

>  <IC50>
< 10 nM

$$$$
>  <molecule>
COCCNC(=O)c1ccc(-c2ccc3nc(C(C(=O)NCCS(N)(=O)=O)S(C)(=O)=O)sc3c2)cc1 (stereo not drawn)

>  <IC50>
< 10 nM

$$$$

Please list IC50 recorded for the molecule Cc1nnc(CNC(=O)C(c2nc3cc(F)c(-c4ccccc4)cc3s2)S(=O)(=O)CC(C)C)o1 (stereo not drawn)
< 10 nM

###

subject of test: Endothelial lipase (EL) (Homo sapiens (Human), UniProt Q9Y5X9)
Sequence (Q9Y5X9 21-500): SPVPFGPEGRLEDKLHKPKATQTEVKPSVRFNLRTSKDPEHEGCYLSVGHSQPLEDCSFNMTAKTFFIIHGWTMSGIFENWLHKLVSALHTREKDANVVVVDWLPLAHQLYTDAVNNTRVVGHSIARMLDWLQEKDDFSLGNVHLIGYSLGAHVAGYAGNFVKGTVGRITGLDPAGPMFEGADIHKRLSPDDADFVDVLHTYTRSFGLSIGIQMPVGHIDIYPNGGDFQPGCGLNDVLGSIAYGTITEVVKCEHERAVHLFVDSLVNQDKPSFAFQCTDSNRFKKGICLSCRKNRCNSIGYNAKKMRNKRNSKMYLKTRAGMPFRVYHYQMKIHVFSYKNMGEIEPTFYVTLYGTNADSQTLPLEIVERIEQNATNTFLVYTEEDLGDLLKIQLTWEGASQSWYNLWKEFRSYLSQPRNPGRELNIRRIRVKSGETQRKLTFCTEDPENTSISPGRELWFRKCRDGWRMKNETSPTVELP
experimental protocol: EL assay: endothelial lipase activity with fluorescent substrate A10070 in DMPG vesicles
Format: biochemical
condition set: EL from conditioned media of HT-1080 cells; 30 min incubation with compound at 37° C.; A10070/DMPG vesicles
quantity: IC50

Look over these answered cases.
>  <compound>
COCCNC(=O)c1ccc(-c2ccc3nc(C(C(=O)NCCS(N)(=O)=O)S(=O)(=O)Cc4ccccc4)sc3c2)cc1 (centres unmarked)

>  <subject of test>
Endothelial lipase (EL) (Homo sapiens (Human), UniProt Q9Y5X9)

>  <quantity>
IC50

>  <result>
< 10 nM

$$$$
>  <compound>
CS(=O)(=O)C(C(=O)NCCS(N)(=O)=O)c1nc2ccc(-c3ccccc3)cc2s1 (centres unmarked)

>  <subject of test>
Endothelial lipase (EL) (Homo sapiens (Human), UniProt Q9Y5X9)

>  <quantity>
IC50

>  <result>
< 10 nM

$$$$
>  <compound>
CC(C)S(=O)(=O)C(C(=O)NCCS(N)(=O)=O)c1nc2ccc(-c3ccc(F)nc3)cc2s1 (centres unmarked)

>  <subject of test>
Endothelial lipase (EL) (Homo sapiens (Human), UniProt Q9Y5X9)

>  <quantity>
IC50

>  <result>
< 10 nM

$$$$
>  <compound>
CS(=O)(=O)C(C(=O)NCCS(N)(=O)=O)c1nc2ccc(-c3ccnc(Cl)c3)cc2s1 (centres unmarked)

>  <subject of test>
Endothelial lipase (EL) (Homo sapiens (Human), UniProt Q9Y5X9)

>  <quantity>
IC50

>  <result>
< 10 nM

$$$$

Lab note: next compound to report on.
Please list IC50 recorded for the compound NS(=O)(=O)CCNC(=O)C(NC(=O)c1ccc(C(F)(F)F)cc1)c1nc2ccc(-c3ccc(F)nc3)cc2s1 (centres unmarked)
35 nM

###

subject of test: hepatic lipase (HL) (Homo sapiens (Human))
experimental protocol: HL assay: hepatic lipase activity with fluorescent substrate A10070 in DMPG vesicles
Assay type: biochemical
Give pIC50 for every item shown.
One number for each entry, as −log10 of the molar value.

>  <compound>
CS(=O)(=O)C(C(=O)NCCS(N)(=O)=O)c1nc2ccc(-c3ccc(CO)cc3)cc2s1 (stereo not drawn)

>  <pIC50>
6.91

$$$$

Lab note: next compound to report on.
Please list pIC50 recorded for the compound Cn1nccc1-c1ccc2sc(C(C(=O)NCCS(N)(=O)=O)S(C)(=O)=O)nc2c1 (stereo not drawn)
6.08

###

subject of test: hepatic lipase (HL) (Homo sapiens (Human), UniProt P11150)
Sequence (P11150 23-499, species assumed): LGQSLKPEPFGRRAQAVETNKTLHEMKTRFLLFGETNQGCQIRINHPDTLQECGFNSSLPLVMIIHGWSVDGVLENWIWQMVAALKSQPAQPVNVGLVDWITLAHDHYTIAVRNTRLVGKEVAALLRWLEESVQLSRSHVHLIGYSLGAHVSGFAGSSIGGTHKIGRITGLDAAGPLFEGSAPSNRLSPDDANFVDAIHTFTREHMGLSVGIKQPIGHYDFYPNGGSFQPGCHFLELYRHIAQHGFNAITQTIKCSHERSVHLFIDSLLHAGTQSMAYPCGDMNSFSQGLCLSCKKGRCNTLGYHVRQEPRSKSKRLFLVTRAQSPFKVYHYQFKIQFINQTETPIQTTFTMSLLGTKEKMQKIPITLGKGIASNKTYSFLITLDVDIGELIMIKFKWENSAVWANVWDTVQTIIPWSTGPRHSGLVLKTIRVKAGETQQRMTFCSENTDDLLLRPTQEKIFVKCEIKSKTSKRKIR
experimental protocol: HL assay: hepatic lipase activity with fluorescent substrate A10070 in DMPG vesicles
Type: biochemical
Method: Endothelial lipase (EL) and hepatic lipase (HL) activities were measured using a fluorescent substrate, A10070, (Invitrogen, CA) doped into an artificial vesicle containing DMPG (Avanti Polar Lipids) as the excipient. […] The enzymatic assay was measured using 384-well white Optiplates. […] The reaction rates were measured on a Gemini plate reader with an excitation wavelength of 490 nm and an emission wavelength of 530 nm. […]
pIC50: −log10 of the molar value.
Give pIC50 for every item shown.

Look over these answered cases.
>  <molecule>
COCCS(=O)(=O)C(C(=O)NCCS(N)(=O)=O)c1nc2ccc(-c3ccccc3)cc2s1 (stereo not drawn) [Example B103]

>  <result>
> 8.00

$$$$
>  <molecule>
CCCS(=O)(=O)C(C(=O)NCCS(N)(=O)=O)c1nc2ccc(-c3ccccc3)cc2s1 (stereo not drawn) [Example B107]

>  <result>
> 8.00

$$$$

Lab note: next molecule to report on.
Fill in: pIC50 on hepatic lipase (HL) (Homo sapiens (Human), UniProt P11150), entry COc1cccc(-c2ccc3nc(C(C(=O)NCCS(N)(=O)=O)S(C)(=O)=O)sc3c2)c1 (stereo not drawn) [Example B79]
> 8.00
